Reference source for all entries: patent US12156915B2

# methodSummary: THP1 cytotoxicity assay (alamar blue)
# Format: cell-based
# assaySetup: human, PMA-differentiated THP1 cells, 48 hrs + 24 hrs alamar blue
List of IC50 at 48 h values.
Form entry: value (µM) — number only.

-- ask // lookup IC50 at 48 h for C[C@H]1[C@@H](OCC(CO[C@H]2O[C@@H]3O[C@@]4(C)CC[C@H]5[C@H](C)CC[C@@H]([C@H]2C)[C@@]35OO4)NCCc2c[nH]c3ccccc23)OC2O[C@@]3(C)CC[C@H]4[C@H](C)CC[C@@H]1[C@@]24OO3 (some centres unmarked) [dimer tryptamine]
-- reply 7.39

Turning to the following molecule.
-- ask GET /values?readout=IC50 at 48 h&item= C[C@H]1[C@@H](OC/C(CO[C@H]2O[C@@H]3O[C@]4(C)CC[C@H]5[C@H](C)CC[C@@H]([C@H]2C)[C@@]35OO4)=N\O)O[C@@H]2OC3(C)CC[C@H]4[C@H](C)CC[C@@H]1[C@@]24OO3 [dimer oxime]
-- reply 11.4
